Test system: HepG2 Srxn1-GFP reporter cells (+30 nM CDDO-Me)
Assay: Srxn1-GFP intensity median modified Z-score relative to plate median; higher = stronger NRF2 / oxidative stress reporter activation, active = hit call of the paper
Conditions: 10 µM; exposure time: 24h
In all, about 2,300 compounds went through this assay and about 330 (14%) showed activity.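 How the source made its calls: active = median modified Z-score above 1.96; inactive = 1.96 or below.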 The list is a sample of the results.
Output constraint: value belongs to y = active, n = inactive

CC(=O)OC1CN2CCC1CC2 (stereo not drawn)
n

--- query ---
What classification did CN1C2C[C@H](OC(=O)C(CO)c3ccccc3)C[C@H]1[C@H]1OC21 (stereo partly drawn) end up with in this test?
n
